- TARGET: ALK (Homo sapiens, UniProt Q9UM73)
- Sequence (Q9UM73 with tags, fused parts or gaps): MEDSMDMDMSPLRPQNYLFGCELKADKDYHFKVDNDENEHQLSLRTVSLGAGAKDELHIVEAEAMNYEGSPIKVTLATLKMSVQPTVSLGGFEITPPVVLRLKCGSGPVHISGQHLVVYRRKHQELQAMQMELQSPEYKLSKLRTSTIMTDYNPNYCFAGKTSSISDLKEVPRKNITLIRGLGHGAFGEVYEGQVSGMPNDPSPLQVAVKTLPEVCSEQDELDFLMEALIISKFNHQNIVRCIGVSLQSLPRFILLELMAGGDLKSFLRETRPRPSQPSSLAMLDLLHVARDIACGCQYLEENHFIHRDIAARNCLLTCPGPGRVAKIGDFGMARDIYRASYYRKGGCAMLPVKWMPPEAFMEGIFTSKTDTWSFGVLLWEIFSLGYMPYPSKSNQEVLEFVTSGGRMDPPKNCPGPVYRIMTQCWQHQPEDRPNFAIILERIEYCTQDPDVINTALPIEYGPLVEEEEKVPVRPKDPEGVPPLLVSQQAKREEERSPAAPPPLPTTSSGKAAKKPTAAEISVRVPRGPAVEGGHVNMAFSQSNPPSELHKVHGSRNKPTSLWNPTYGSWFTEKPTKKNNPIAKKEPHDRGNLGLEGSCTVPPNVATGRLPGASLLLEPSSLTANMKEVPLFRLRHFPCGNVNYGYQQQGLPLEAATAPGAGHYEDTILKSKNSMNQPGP
- MEASUREMENT DESCRIPTION: ALK kinase assay (Kinase-Glo / AlphaScreen, purified NPM-ALK);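 note: recombinant baculovirus-expressed ALK kinase domain, activity read either as leftover ATP by Kinase-Glo luminescence or as poly(Glu-Tyr) phosphorylation by anti-phosphotyrosine AlphaScreen proximity signal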
- Format: biochemical
- Design: fused to the complete intracytoplasmic portion of ALK containing the functional tyrosine kinase domain; 6xHis; made in house; host or cells: insect cells; the other entry of the earlier key: NPM1 (P06748, Nucleophosmin)
- CONDITION DESCRIPTION: Table 8D; read-out: GTx-ALK IC50
IC50 listing for selected compounds.
Record the value in nM, omitting the unit from your answer.

Record request: IC50 value, item C[C@@H](Cc1c(F)c(F)cc(F)c1F)Nc1cc[nH]c(=O)c1-c1nc2cc3c(cc2[nH]1)CN(CCN1CCCC1)C3=O [drawing 370]
3

Record request: IC50 value, item Cc1ccc(F)cc1C[C@H](C)Nc1cc[nH]c(=O)c1-c1nc2cc3c(cc2[nH]1)C(=O)N(CCN1CCCC1)C3 [drawing 368]
2

Record request: IC50 value, item C[C@@H](Cc1cc(F)cc(F)c1F)Nc1cc[nH]c(=O)c1-c1nc2cc3c(cc2[nH]1)CN(CCN1CCCC1)C3=O [drawing 369]
5
